- Assayed System: mu receptor (Mus musculus)
- Construct: Five CF-1 male mice (Charles River, Portage, Mich.); from tissue; host or cells: whole living CF-1 male mice (in vivo)
- Sequence (P42866 whole entry): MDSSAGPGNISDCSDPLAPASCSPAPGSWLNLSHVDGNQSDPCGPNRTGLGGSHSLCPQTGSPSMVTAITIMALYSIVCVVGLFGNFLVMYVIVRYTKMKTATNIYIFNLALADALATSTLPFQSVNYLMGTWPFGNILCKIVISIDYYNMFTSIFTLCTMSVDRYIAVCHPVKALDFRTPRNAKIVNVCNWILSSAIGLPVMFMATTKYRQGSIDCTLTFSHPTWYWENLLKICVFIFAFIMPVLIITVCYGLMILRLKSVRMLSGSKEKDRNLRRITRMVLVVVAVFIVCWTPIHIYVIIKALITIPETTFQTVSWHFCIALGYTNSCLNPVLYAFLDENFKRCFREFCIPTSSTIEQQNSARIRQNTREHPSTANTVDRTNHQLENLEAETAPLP
- Experiment Notes: Mouse writhing assay, antagonism of morphine analgesia (mu)
- Format: in vivo, CF-1 male mice
- Experimental Context: sc, read-out: Mu AD50
Counter-ions that a name gives are not always drawn.
Value Type: ED50 (mg/kg)

[[record]]
compound = "CCCCCCN1CC[C@@](C)(c2cccc(O)c2)[C@@H](C)C1 (stereo in doubt) [Example 1, hydrochloride]"
value_type = "ED50"
experimental_result = 0.26

[[record]]
compound = "C[C@H]1CN(CCC(O)C2CCCCC2)CC[C@@]1(C)c1cccc(O)c1 (relative stereo) [Example 27, hydrochloride]"
value_type = "ED50"
experimental_result = 0.07

[[record]]
compound = "C[C@H]1CN(CCC(O)c2cccs2)CC[C@@]1(C)c1cccc(O)c1 (relative stereo) [Example 40, hydrochloride]"
value_type = "ED50"
experimental_result = 0.065

[[record]]
compound = "CC(C)CCCCN1CC[C@](C)(c2cccc(O)c2)[C@H](C)C1 (stereo in doubt) [Example 29, hydrochloride]"
value_type = "ED50"
experimental_result = 0.35

[[record]]
compound = "C[C@H]1CN(CCC(=O)C2CCCC2)CC[C@@]1(C)c1cccc(O)c1 (relative stereo) [Example 17, hydrochloride]"
value_type = "ED50"
experimental_result = 0.21

[[record]]
compound = "CCCCCC(=O)CCN1CCC(C)(c2cccc(O)c2)C(C)C1 (stereo not shown) [Example 32, hydrochloride]"
value_type = "ED50"
experimental_result = 0.17

[[record]]
compound = "CC1CN(CCC(C)(C)C)CCC1(C)c1cccc(O)c1 (stereo not shown) [Example 12, hydrochloride]"
value_type = "ED50"
experimental_result = 0.56

